Hello, the source for this data is paper PMC9490236, in case you need it.

# protocol-summary: Pharmacokinetics and oral bioavailability of D8.3.p1 and D10.1 in Balb/C female mice (PO, SQ, IV)
# Format: in vivo
# measurement-context: female, Balb/C, mouse, in vivo, sc, 5 mg/kg, Plasma level
Where a SMILES comes first, the peptide text is derived from it. [ ]: non-standard residue; d: D form. dNMeL = CN[C@H](CC(C)C)C(=O)O

compound	level at time molar at 0.25 h
CC[C@@H](C)[C@H]1NC(=O)[C@@H](CC(C)C)NC(=O)[C@@H](CC(C)C)N(C)C(=O)[C@@H]2CCCN2C(=O)[C@@H](C(C)C)NC(=O)[C@H](CC(C)C)NC(=O)[C@@H](CC(C)C)N(C)C(=O)[C@@H]2CCCN2C1=O [Design D8.3.p1, DLEU DVAL PRO *DLEU DLEU DILE PRO *DLEU] (cyclo(L[dV]P[dNMeL][dL][dI]P[dNMeL]))	510 nM
